IC50 for assorted compounds
test system: YAP-TEAD interaction; assay: SK-HEP-1 reporter assay (8x TEAD responsive elements driving NanoLuc luciferase); format: cell-based; details: Homo sapiens, SK-HEP1, SK-HEP-1 cells, 24 hour incubation, number, or n.d. (x) = not detectable below threshold x

Look over these answered cases.
compound	measValue
C[C@@H](CO)NC(=O)c1cc2c3cn(C)nc3n(-c3ccc(C(F)(F)F)cc3)c2s1	> 0.95 µM
Cn1cc2c3cc(C(=O)NC(CO)C4CCC4)sc3n(-c3ccc(C(F)(F)F)cc3)c2n1 (racemic)	> 9.5 µM
Cn1cc2c3cc(C(=O)NC4(CO)CC4)sc3n(-c3ccc(C(F)(F)F)cc3)c2n1	> 30 µM

Reported IC50 for Cn1cc2c3cc(C(=O)NCc4ccccn4)sc3n(-c3ccc(C(F)(F)F)cc3)c2n1 was > 9.5 µM
